Biological target: hFGFR4 (Homo sapiens)
Sequence (P22455 22-802): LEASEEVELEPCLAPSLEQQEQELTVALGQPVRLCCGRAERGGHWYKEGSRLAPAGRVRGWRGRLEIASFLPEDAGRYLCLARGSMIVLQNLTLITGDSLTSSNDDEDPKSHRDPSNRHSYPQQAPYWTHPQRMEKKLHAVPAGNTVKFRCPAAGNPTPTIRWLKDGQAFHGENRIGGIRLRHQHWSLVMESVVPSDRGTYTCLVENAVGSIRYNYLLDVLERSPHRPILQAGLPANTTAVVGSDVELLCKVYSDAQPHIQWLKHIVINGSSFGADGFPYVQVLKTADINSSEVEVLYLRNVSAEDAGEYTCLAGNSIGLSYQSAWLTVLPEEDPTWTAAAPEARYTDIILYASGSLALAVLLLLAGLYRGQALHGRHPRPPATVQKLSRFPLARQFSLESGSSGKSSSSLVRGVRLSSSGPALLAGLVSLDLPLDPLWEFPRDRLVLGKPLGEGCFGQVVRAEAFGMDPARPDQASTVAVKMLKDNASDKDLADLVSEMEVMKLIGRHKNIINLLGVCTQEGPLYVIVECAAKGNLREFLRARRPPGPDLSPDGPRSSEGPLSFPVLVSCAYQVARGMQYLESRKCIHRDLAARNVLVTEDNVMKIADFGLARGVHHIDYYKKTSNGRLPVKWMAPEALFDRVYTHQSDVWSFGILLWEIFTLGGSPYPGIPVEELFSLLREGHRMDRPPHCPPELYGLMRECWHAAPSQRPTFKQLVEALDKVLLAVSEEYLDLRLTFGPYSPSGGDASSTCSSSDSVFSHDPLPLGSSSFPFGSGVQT
pIC50: −log10 of the molar value.
measuredMetric: pIC50

Consider the molecule Cc1cn(CCN2CCN(c3ccccc3-c3cc(C#N)cc(C(=O)NCCCN4CCCC4)c3)CC2)c2ccccc12 [LLY-507] and give its measured pIC50.
< 4.70

###

Biological target: hLRRK2(G2019S) (Homo sapiens, UniProt Q5S007, G2019S)
Sequence (Q5S007 whole entry G2019S): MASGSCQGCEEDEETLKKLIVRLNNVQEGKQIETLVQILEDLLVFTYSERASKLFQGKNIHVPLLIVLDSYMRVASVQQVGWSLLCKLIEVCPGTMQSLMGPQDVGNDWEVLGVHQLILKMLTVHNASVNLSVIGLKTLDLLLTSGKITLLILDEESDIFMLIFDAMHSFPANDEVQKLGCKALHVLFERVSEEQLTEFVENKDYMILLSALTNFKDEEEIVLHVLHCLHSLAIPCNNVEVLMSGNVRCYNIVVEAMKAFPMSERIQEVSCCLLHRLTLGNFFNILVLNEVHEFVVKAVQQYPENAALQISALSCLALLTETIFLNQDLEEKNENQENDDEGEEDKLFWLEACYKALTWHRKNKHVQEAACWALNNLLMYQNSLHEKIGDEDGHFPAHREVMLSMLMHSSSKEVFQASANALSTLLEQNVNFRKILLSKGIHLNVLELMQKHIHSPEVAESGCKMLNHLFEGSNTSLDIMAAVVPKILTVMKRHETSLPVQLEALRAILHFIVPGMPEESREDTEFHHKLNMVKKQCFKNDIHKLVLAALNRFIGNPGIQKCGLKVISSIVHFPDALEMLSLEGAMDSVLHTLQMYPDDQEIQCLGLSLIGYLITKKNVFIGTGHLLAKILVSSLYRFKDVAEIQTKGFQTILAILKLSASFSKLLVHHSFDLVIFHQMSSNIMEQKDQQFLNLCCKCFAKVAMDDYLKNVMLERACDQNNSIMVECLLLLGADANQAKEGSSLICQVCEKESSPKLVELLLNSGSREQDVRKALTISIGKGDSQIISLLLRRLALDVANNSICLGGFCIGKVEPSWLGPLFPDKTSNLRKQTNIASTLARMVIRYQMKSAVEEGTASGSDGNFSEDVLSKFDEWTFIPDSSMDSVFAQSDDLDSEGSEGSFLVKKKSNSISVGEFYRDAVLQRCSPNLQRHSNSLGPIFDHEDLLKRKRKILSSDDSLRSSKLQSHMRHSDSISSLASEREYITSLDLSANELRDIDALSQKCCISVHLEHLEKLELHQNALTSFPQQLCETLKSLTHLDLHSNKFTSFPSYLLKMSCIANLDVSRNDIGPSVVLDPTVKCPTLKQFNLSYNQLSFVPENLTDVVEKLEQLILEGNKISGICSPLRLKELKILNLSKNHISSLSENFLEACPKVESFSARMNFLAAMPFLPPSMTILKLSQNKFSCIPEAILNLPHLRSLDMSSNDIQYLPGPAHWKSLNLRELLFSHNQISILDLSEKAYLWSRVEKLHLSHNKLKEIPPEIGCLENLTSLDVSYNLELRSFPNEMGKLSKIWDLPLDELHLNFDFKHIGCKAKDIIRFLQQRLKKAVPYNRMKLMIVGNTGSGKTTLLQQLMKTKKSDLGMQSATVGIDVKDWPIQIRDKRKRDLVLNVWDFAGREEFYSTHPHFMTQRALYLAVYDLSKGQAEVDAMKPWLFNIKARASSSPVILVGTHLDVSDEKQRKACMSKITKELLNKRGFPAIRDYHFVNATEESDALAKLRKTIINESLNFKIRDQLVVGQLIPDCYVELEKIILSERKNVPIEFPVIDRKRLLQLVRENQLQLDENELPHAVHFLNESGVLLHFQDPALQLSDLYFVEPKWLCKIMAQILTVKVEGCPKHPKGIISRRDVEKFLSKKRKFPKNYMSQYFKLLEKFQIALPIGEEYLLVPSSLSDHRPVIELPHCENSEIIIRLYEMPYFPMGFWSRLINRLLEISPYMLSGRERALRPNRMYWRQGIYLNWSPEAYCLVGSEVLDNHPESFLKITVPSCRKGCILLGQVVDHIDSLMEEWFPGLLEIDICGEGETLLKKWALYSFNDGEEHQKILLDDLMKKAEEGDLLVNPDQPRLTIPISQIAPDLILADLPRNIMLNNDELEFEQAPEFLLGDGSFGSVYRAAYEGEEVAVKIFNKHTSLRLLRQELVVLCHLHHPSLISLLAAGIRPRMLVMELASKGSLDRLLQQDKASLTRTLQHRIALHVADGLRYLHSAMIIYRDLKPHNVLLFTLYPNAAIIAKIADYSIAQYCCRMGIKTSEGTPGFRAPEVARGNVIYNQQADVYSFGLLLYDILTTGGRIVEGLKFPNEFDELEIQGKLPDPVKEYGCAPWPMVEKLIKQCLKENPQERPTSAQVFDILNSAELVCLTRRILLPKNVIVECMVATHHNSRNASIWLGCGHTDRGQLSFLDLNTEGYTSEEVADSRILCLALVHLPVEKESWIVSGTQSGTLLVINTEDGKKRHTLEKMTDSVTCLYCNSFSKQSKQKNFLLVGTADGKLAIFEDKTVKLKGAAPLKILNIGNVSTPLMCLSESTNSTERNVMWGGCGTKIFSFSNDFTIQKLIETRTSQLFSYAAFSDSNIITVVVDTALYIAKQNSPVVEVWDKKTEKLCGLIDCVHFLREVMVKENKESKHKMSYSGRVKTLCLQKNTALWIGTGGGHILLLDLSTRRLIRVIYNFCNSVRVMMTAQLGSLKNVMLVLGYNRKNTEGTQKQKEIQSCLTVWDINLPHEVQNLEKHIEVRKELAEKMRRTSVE
Assay: KINOMEscan
pIC50: −log10 of the molar value.
measuredMetric: pIC50

Consider the compound Cc1cn(CCN2CCN(c3ccccc3-c3cc(C#N)cc(C(=O)NCCCN4CCCC4)c3)CC2)c2ccccc12 and give its measured pIC50.
< 4.70

Where do the numbers come from? From paper PMC4447944.
